The measurements presented in this section are drawn from paper PMC7150870.

- Tested on: HEK293T
- Assay type: cell-based, human
OUTCOME_MEASURE: combination index, mixture of DAS (6.58 nM) (Syn)
Expressed in Syn, but write only the number.

Qu. // query combination index, mixture of DAS (6.58 nM) value for entry COc1c(C)c2c(c(O)c1C/C=C(\C)CCC(=O)O)C(=O)OC2 [MPA, mycophenolic acid, reference compound]
Ans. 0.83

Qu. // query combination index, mixture of DAS (6.58 nM) value for entry `CC(C)[C@H]1C(=O)O[C@H](C(C)C)C(=O)N(C)[C@@H](C(C)C)C(=O)O[C@H](C(C)C)C(=O)N(C)[C@@H](C(C)C)C(=O)O[C@H](C(C)C)C(=O)N1C`
Ans. 0.79

Qu. // query combination index, mixture of DAS (6.58 nM) value for entry `CC1=C[C@H]2O[C@@H]3[C@H](O)C[C@](C)([C@@]2(CO)[C@H](O)C1=O)[C@]31CO1`
Ans. 0.88

Qu. // query combination index, mixture of DAS (6.58 nM) value for entry `CC(=O)OC[C@]12C[C@H](OC(=O)CC(C)C)C(C)=C[C@H]1O[C@@H]1[C@H](O)[C@@H](O)[C@@]2(C)[C@]12CO2`
Ans. 0.54

Qu. // query combination index, mixture of DAS (6.58 nM) value for entry `C[C@H]1CCCC(=O)CCC/C=C/c2cc(O)cc(O)c2C(=O)O1`
Ans. 0.85

Qu. // query combination index, mixture of DAS (6.58 nM) value for entry `CC[C@H](C)[C@H]1C(=O)O[C@H](C(C)C)C(=O)N(C)[C@@H](C(C)C)C(=O)O[C@H](C(C)C)C(=O)N(C)[C@@H](C(C)C)C(=O)O[C@H](C(C)C)C(=O)N1C`
Ans. 0.82
